Provenance of the data: paper PMC10257520

System: RPE cells
EXPERIMENTAL_PROTOCOL: cells
ASSAY_CONDITIONS: Homo sapiens, read-out: IC50 on RPE cells
pIC50: −log10 of the molar value.
PROPERTY_LABEL: pIC50

stdin: So what's the measured pIC50 for this one? C#Cc1nc(C2=C(C)[C@@H](O)CC2)cs1 [CETZOLE-1]
stdout: < 4.52
